B1: TPR t1 (parent)
chain: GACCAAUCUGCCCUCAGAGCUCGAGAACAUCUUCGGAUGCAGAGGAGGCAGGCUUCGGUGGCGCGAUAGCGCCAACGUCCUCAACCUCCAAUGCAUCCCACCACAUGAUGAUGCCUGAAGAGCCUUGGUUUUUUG

Variants of: B1
Assay: polymerase ribozyme fitness, log enrichment relative to wild type (log ratio); higher = more active; in vitro selection for triplet polymerase activity
Mark yes (1) for reported polymerase ribozyme fitness (log ratio) of -4 or greater; mark no (0) for anything smaller.

Field: example entries. Status: answers known.
Residue change	Assigned category
G71U C85A	yes (1)
C70G C72G G110U	no (0)
C12U C73A C104A	yes (1)
A29C U106A	yes (1)

Ask: Given U21G C70U G93A , state whether its polymerase ribozyme fitness (log ratio) is at least -4.
Reply: yes (1)

Ask: Given C11G G17A G60A C79G A90U C99A , state whether its polymerase ribozyme fitness (log ratio) is at least -4.
Reply: no (0)

Ask: Given C11G C73G C85A A111G , state whether its polymerase ribozyme fitness (log ratio) is at least -4.
Reply: yes (1)

Ask: Given C97U G117C , state whether its polymerase ribozyme fitness (log ratio) is at least -4.
Reply: no (0)

Ask: Given C70A U112A G113A , state whether its polymerase ribozyme fitness (log ratio) is at least -4.
Reply: yes (1)

Ask: Given U9G G51C , state whether its polymerase ribozyme fitness (log ratio) is at least -4.
Reply: yes (1)

Ask: Given C3U G47A G60A C85G C123U , state whether its polymerase ribozyme fitness (log ratio) is at least -4.
Reply: yes (1)

Ask: Given C13U C40U , state whether its polymerase ribozyme fitness (log ratio) is at least -4.
Reply: yes (1)

Ask: Given G69A G77A C86U U112A , state whether its polymerase ribozyme fitness (log ratio) is at least -4.
Reply: yes (1)

Ask: Given C13G G63U C102A , state whether its polymerase ribozyme fitness (log ratio) is at least -4.
Reply: no (0)

Ask: Given A24U G39A C72A U112C , state whether its polymerase ribozyme fitness (log ratio) is at least -4.
Reply: no (0)

Ask: Given C8G G48U , state whether its polymerase ribozyme fitness (log ratio) is at least -4.
Reply: yes (1)

Ask: Given G44A G61C U78C C79G U112G , state whether its polymerase ribozyme fitness (log ratio) is at least -4.
Reply: yes (1)

Ask: Given G71A G77U C88U G110A C115A U130A , state whether its polymerase ribozyme fitness (log ratio) is at least -4.
Reply: no (0)

Ask: Given C15A G61C , state whether its polymerase ribozyme fitness (log ratio) is at least -4.
Reply: no (0)
